GI50: recorded values
# Test system: SK-OV-3
# Assay Comment: NCI tumour cell line growth inhibition, 48 h
Activity calls are given as the source filed them. No stated cut-off is given here; in the data, active = GI50 up to about 1.1 µM and inactive = higher.

Study these solved cases before continuing.
- Molecule: "Cc1cn(C2CC(O)C(COC(=O)NCCC(F)(F)C(F)(F)C(F)(F)C(F)(F)F)O2)c(=O)[nH]c1=O (stereo not drawn)"
  GI50: "> 100 µM (inactive)"
- Molecule: "CC(C)[C@H](O)C(=O)N[C@H]1Cc2ccc3c(c2)[C@]24C5=C(N=C(O5)[C@H](C(C)C)NC1=O)c1nc(Cl)c(o1)-c1c(Cl)[nH]c5cccc(c15)-c1cccc2c1N[C@H]4O3"
  GI50: "0.001 µM (active)"
- Molecule: "[O-][Cl+3]([O-])([O-])O.c1ccc(/N=c2\\snc(-c3ccccc3)s2)cc1"
  GI50: "> 100 µM (inactive)"
- Molecule: "CC(=O)NC1=C(NC(C)(C)C)C(=O)c2ccccc2C1=O"
  GI50: "54 µM (inactive)"
- Molecule: "Brc1ccc2c(-c3csc(-c4c[nH]c5cc(Br)ccc45)n3)c[nH]c2c1"
  GI50: "18.5 µM (inactive)"

# input I would be grateful if you could share the reported GI50 for CCOc1ccc(N/C(=C(/C(Cl)=C(/Cl)N2CCCCC2)[N+](=O)[O-])n2nnc3ccccc32)cc1 .
# output 28.9 µM (inactive)

# input I would be grateful if you could share the reported GI50 for COc1cc(C=O)ccc1Oc1nnnn1-c1ccccc1 .
# output > 100 µM (inactive)

# input I would be grateful if you could share the reported GI50 for NC(=O)CC(N)C(=O)NC(Cc1ccccc1)C(=O)NC(Cc1ccccc1)NC(=O)C(Cc1c[nH]c2ccccc12)C(=O)O (stereo not drawn) .
# output > 100 µM (inactive)

###

# Test system: RPMI-8226
# Assay Comment: NCI tumour cell line growth inhibition, 48 h
Calls of active or inactive are those of the source. Cut-off read from the data, not from the text of the source: active = GI50 up to about 1.1 µM and inactive = higher.
Respond with a class label; see active, inactive

# example entries with known answers
- Compound: "[O-][Cl+3]([O-])([O-])O.c1ccc(/N=c2\\snc(-c3ccccc3)s2)cc1"
  Classification: "inactive"
- Compound: "CC12CC(=O)NN=C1c1ccccc1C2 (stereo not given)"
  Classification: "inactive"
- Compound: "C=CCOC1=C(OC(C)=O)C(=O)OC1C1COC(C)(C)O1 (stereo not given)"
  Classification: "inactive"

Now for a further compound.
# input Status in this test for N#CC(c1nc2ccccc2nc1Cl)S(=O)(=O)c1ccccc1 (stereo not given) ?
# output inactive

###

# Test system: CAKI-1
# Assay Comment: NCI tumour cell line growth inhibition, 48 h
Calls of active or inactive are those of the source. No stated cut-off is given here; in the data, active = GI50 up to about 1.1 µM and inactive = higher.
Respond with a class label; see 1 for active, 0 for inactive

# example entries with known answers
- Molecule: "c1ccc(-c2cnc3nc4ccccc4nc3n2)cc1"
  Classification: 1
- Molecule: "COc1ccc(/C(Cl)=C(\\C=O)c2ccc(Cl)cc2)cc1OC"
  Classification: 0
- Molecule: "COc1cc2cccc(/N=C\\c3cccc(OC)c3OC(C)C)c2cc1OC"
  Classification: 0
- Molecule: "O=C(CC(=O)c1ccc([N+](=O)[O-])cc1)C(=O)Nc1nccs1"
  Classification: 0

# input Status in this test for COc1cc2c(cc1OC)C(N)CC2=O (stereo unspecified) ?
# output 0

# input Status in this test for CCC1CCC2c3c([nH]c4ccc(C)cc34)C3C(=O)N(N(C)C)C(=O)C3C2C1 (stereo unspecified) ?
# output 0
